- Test system: NCI-H226
- Assay Notes: NCI tumour cell line growth inhibition, 48 h
The source made the active and inactive calls. Rule as the data show it: active = GI50 up to about 1.1 µM and inactive = higher. Non-standard residues stand in square brackets, D forms with d. Residues, ends and D or L forms follow the SMILES beside them. ξ: configuration not given here. Pentanoyl(2-O,4-OH,5-Cl) = O=C(O)C(O)CC(O)CCl; Ile(3ξ) = CCC(C)[C@H](N)C(=O)O; NMeV = CN[C@H](C(=O)O)C(C)C; NMeA = CN[C@@H](C)C(=O)O; βAla = NCCC(=O)O
For each of the compounds below, state its GI50.

Solved cases below.
CSc1nc(Nc2ccccc2Cl)c2c(N)nn(C)c2n1
> 100 µM (inactive)
c1ccc2c(c1)[nH]c1c2nc2ccccn21
> 100 µM (inactive)
CCn1c(SCC(=O)NNC(=S)Nc2ccc(F)cc2)nc2ccccc2c1=O
> 100 µM (inactive)
Nc1nc2c(-c3ccc([N+](=O)[O-])cc3)nnn2c2ccccc12
> 100 µM (inactive)
COc1cc(/C=C(\NC(=O)c2ccccc2)c2nc3ccc4c(c3[nH]2)C(=O)c2ccccc2C4=O)cc(OC)c1OC
> 100 µM (inactive)
Cc1nc2ccccc2c(=O)n1NC(=O)c1ccccc1[N+](=O)[O-]
> 100 µM (inactive)

Batch of 7 compounds: report GI50 for each.
1. COc1nc2c(c(=O)n1C)NC(C(O)C(O)CO)C=N2 (stereo not drawn)
2. O=c1c2ccccc2[nH]c2c(Cl)cc(Cl)c(N3CCCCC3)c12
3. O=S1(=O)CCCS(=O)(=O)C(c2ccccc2)=C1c1ccccc1
4. O=c1oc2cc(/N=C/c3ccc4c(c3)OCO4)ccc2c2ccccc12
5. Nc1nc(NNc2cccc(F)c2)cc(=O)[nH]1
6. COC(=O)c1[nH]c(=S)[nH]c(=O)c1-c1ccc(Cl)cc1
7. Cc1nc2cccc([N+](=O)[O-])c2n1CCCN(C)C

["> 10 µM (inactive)", "23.7 µM (inactive)", "56.5 µM (inactive)", "> 100 µM (inactive)", "> 100 µM (inactive)", "> 50 µM (inactive)", "> 100 µM (inactive)"]

Batch of 4 compounds: report GI50 for each.
1. CC(=O)O[C@H]1C[C@@H](OC(C)=O)[C@@](C)(O)[C@@H]2[C@@H](OC(C)=O)[C@@]3(O)[C@H](/C=C(/CCl)[C@H]4O[C@H]4[C@@H](OC(C)=O)[C@@]12C)OC(=O)[C@@H]3C
2. COc1ccc(N2C(=O)/C(=C\c3cccc(Oc4ccccc4)c3)SC2c2ccccc2)cc1 (stereo not drawn)
3. CCC(C)[C@@H]1NC(=O)[C@@H]2CCCN2C(=O)C(CC(O)CCl)OC(=O)CCNC(=O)[C@H](C)N(C)C(=O)[C@H](C(C)C)N(C)C1=O (stereo partly drawn) (cyclo([Ile(3ξ)][NMeV][NMeA][βAla][Pentanoyl(2-O,4-OH,5-Cl)]P))
4. COC(=O)/C=C1\C(CO[Si](C)(C)C(C)(C)C)OC(n2cc(C)c(=O)n(C)c2=O)C1O[Si](C)(C)C(C)(C)C (stereo not drawn)

> 25 µM (inactive)
> 100 µM (inactive)
> 100 µM (inactive)
> 100 µM (inactive)

Please give the measured GI50 for this compound: CN(C)c1ccc(/C=C(\NC(=O)c2ccccc2)C(=O)Nc2cccc(C(=O)NCCCO)c2)cc1
> 100 µM (inactive)

---

- System: SNB-78
- Assay Notes: NCI tumour cell line growth inhibition, 48 h
Calls of active or inactive are those of the source. Rule as the data show it: active = GI50 up to about 1.1 µM and inactive = higher.
Lab note: assign the record to one of True = active, False = inactive

COc1cc2c(oc(=O)c3cc(C)cc(OC)c32)c2c(C3OC(C)C(O)C(C)(O)C3O)ccc(O)c12 (stereo unspecified)
True

Here is another molecule to look at.
Please let me know the test result on file for O=C1CC2C=CC1C2CO (stereo unspecified) .
False

---

- System: MDA-N
- Assay Notes: NCI tumour cell line growth inhibition, 48 h
Active and inactive are the calls of the source. No stated cut-off is given here; in the data, active = GI50 up to about 1.1 µM and inactive = higher.
Lab note: assign the record to one of active, inactive

Please let me know the test result on file for Cc1cc2oc(=O)c(Cl)c(Cl)c2c(C)c1Cl .
inactive

Entry Cc1nn(C)c2c1C(=O)N(C)CC(=O)N2C please
inactive

Entry C[C@]12CC/C(=N\O)C=C1CC[C@@H]1[C@@H]2CC[C@]2(C)C(=N/O)/C(=C/c3cccnc3)C[C@@H]12 please
inactive

---

- Test system: U-251
- Assay Notes: NCI tumour cell line growth inhibition, 48 h
Calls of active or inactive are those of the source. No stated cut-off is given here; in the data, active = GI50 up to about 1.1 µM and inactive = higher.
For each of the compounds below, state its GI50.

CC(C)CC(N)C(=O)NC(CNC(CCC(N)=O)C(=O)NC(CC(C)C)C(=O)NC(CC(C)C)C(=O)O)Cc1ccc2ccccc2c1 (stereo not given)
> 10 µM (inactive)
CN(C)/C=N\c1nncc2[nH]cnc12
> 100 µM (inactive)
O=[N+]([O-])c1ccc(-c2cnc3ccccn23)cc1
> 100 µM (inactive)
Cc1c(C(=O)O)n(C)c(=O)n(C)c1=O
> 100 µM (inactive)
CC(C)N1[C@@H]2CCCC[C@H]2N(C(C)C)P1(=O)C(=O)/C=C/c1ccccc1
4.08 µM (inactive)
CC[N+](C)(C)c1ccc(C(=C2C=CC(=[N+](C)C)C=C2)c2ccc(N(C)C)cc2)cc1
3.94 µM (inactive)
O=C(Cc1ccccc1)N/N=C(/CCN1CCCC1)CC(c1ccccc1)c1c(O)c2ccccc2oc1=O (stereo not given)
> 100 µM (inactive)
COc1c(-c2nc3ccc(N4CCN(C)CC4)nc3[nH]2)cc(OC)c2[nH]c(COC(C)=O)nc12
13.8 µM (inactive)

Batch of 2 compounds: report GI50 for each.
1. CC(=O)OC1(C)C=CC(=O)C=C1
2. O=C(O)c1ccc(Nc2c3ccccc3nc3ccccc23)cc1

["13.3 µM (inactive)", "51.6 µM (inactive)"]

---

For each of the compounds below, state its GI50.
- System: SK-MEL-2
- Assay Notes: NCI tumour cell line growth inhibition, 48 h
Activity calls are given as the source filed them. Rule as the data show it: active = GI50 up to about 1.1 µM and inactive = higher.

Cc1cccc(NC(=O)/C(=N\NC(C)(C)C)C2NC(=S)NC2=O)c1C (stereo not given)
> 100 µM (inactive)

Batch of 4 compounds: report GI50 for each.
1. O=C1NC(=O)C(CCO)(c2ccccc2)C(=O)N1
2. CC1=CC(=O)/C(=C/N2CCNC2=S)C(=O)O1
3. CSc1nc(NC2OC(COC(C)=O)C(OC(C)=O)C(OC(C)=O)C2OC(C)=O)c2c(OC(C)=O)c(C)c(=O)oc2n1 (stereo not given)
4. CC(C)(C)/N=c1/n(C(C)(C)C)oc(=O)n1C(C)(C)C

1. > 100 µM (inactive)
2. > 100 µM (inactive)
3. > 100 µM (inactive)
4. > 100 µM (inactive)

Batch of 7 compounds: report GI50 for each.
1. CC(=O)Nc1ccc(/C=C(\NC(=O)c2ccccc2)c2nc3ccc4c(c3[nH]2)C(=O)c2ccccc2C4=O)cc1
2. CCOC(=O)c1c[nH]c2cc3c(cc2c1=O)CCS3(=O)=O.CCOC(=O)c1c[nH]c2ccc3c(c2c1=O)S(=O)(=O)CC3
3. O=C(NNC(=O)c1ccccc1O)c1cccc(Br)c1
4. COc1ccc(-c2c(C#N)c(O)n(NS(=O)(=O)c3ccc(C)cc3)c(=O)c2C#N)cc1
5. CC[N+](C)(C)c1ccc(C(=C2C=CC(=[N+](C)C)C=C2)c2ccc(N(C)C)cc2)cc1
6. COC(=O)/C(=C/c1ccc(OC)cc1)c1cc(OC)c(OC)c(OC)c1
7. COc1c2c(c3c(c1OC)c(=O)c1ccccc1n3C)OCO2

["48.8 µM (inactive)", "> 100 µM (inactive)", "> 70 µM (inactive)", "> 100 µM (inactive)", "21.1 µM (inactive)", "3.18 µM (inactive)", "> 100 µM (inactive)"]

Batch of 2 compounds: report GI50 for each.
1. CC(C)CNc1nc(N)nc(O)c1NC=O
2. COC(=O)C1=C(OC(=O)/C(=C/c2ccccc2)c2ccccc2)C(C(=O)OC)[C@@]2(O)[C@@H](C(=O)OC)[C@H](C)C[C@@H]1[C@@H]2C(=O)OC (stereo not given in full)

["> 100 µM (inactive)", "> 100 µM (inactive)"]

---

- System: MDA-MB-231
- Assay Notes: NCI tumour cell line growth inhibition, 48 h
Activity calls are given as the source filed them. No stated cut-off is given here; in the data, active = GI50 up to about 1.1 µM and inactive = higher.
For each of the compounds below, state its GI50.

Cc1cccc2nc3cc(O)cc(O)c3c(O)c12
> 10 µM (inactive)

Batch of 6 compounds: report GI50 for each.
1. COc1cccc2c1C(=O)c1c(O)c3c(c(O)c1C2=O)C[C@@](O)(C(=O)CO)C[C@@H]3OC1CC2C(OCN3CN2COC2C(C)OC(O[C@H]4C[C@](O)(C(=O)CO)Cc5c(O)c6c(c(O)c54)C(=O)c4c(OC)cccc4C6=O)CC23)C(C)O1 (stereo partly specified)
2. O=C1C(/C=N/CCc2c[nH]c3ccccc23)C(C(F)(F)F)=NN1c1nc2ccccc2s1 (stereo unspecified)
3. O=C(O)C1C2C=CC(O2)C1C(=O)NCc1ccccn1 (stereo unspecified)
4. O=C(O)C1CC(O)CN1 (stereo unspecified)
5. O=S(=O)(N/C(=N\O)Nc1ccc(Cl)cc1)c1cc(C(F)(F)F)cc(C(F)(F)F)c1
6. CC(C)(C)OC(=O)C1CC[C@@H](CC(=O)Oc2ccc([N+](=O)[O-])cc2)N1 (stereo partly specified)

0.0741 µM (active)
36.7 µM (inactive)
> 100 µM (inactive)
> 100 µM (inactive)
18.4 µM (inactive)
> 100 µM (inactive)

Batch of 3 compounds: report GI50 for each.
1. CN(C)c1ccc(C2CC(=O)CC(c3ccc(N(C)C)cc3)C23C(=O)NC(=O)NC3=O)cc1 (stereo unspecified)
2. CS(=O)(=O)O[C@H]1CN2C[C@@H](O)[C@@H](O)[C@H]2[C@H]1CO.[B]
3. Cc1cc2oc(=O)c(Cl)c(Cl)c2c(C)c1Cl

["> 25 µM (inactive)", "> 100 µM (inactive)", "11 µM (inactive)"]

Batch of 5 compounds: report GI50 for each.
1. COC(=O)[C@@H]1C[C@@]2(C3C=CN(C(=O)C(F)(F)F)C=C3)c3ccccc3N(C(=O)C(F)(F)F)[C@H]2N1C(=O)OC
2. C=C1C(=O)O[C@H]2[C@H]1CC(=O)/C(C)=C/CC[C@@]1(C)O[C@@H]21
3. CCNc1nc(N)c(C(=O)c2ccc(Cl)cc2)s1
4. NC(=O)c1ccc(NS(=O)(=O)c2ccc(N)cc2)nc1
5. N#Cc1c(O)c(C=O)c(=O)n2c1[nH]c1ccccc12

1: > 100 µM (inactive); 2: 1.05 µM (active); 3: > 100 µM (inactive); 4: > 100 µM (inactive); 5: > 100 µM (inactive)
